Origin of values: patent US20050142568A1

Target: T1, ^35S-Methionine labeled CRN-6 (C. elegans, UniProt P34508-2 18-373, limits assumed, 35S-methionine labelled)
T1 sequence (looked up): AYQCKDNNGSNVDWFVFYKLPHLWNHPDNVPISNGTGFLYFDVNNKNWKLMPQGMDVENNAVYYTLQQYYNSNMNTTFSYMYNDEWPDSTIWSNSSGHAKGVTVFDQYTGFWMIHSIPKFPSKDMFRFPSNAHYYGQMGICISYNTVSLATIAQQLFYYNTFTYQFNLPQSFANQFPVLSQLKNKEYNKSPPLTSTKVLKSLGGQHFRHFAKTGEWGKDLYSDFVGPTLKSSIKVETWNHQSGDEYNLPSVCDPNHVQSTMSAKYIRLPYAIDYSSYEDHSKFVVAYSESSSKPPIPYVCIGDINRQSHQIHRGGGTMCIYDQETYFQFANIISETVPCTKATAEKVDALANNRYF
Experiment: GST pull-down, 35S-Met protein vs GST fusion; - means no detectable binding (footnote a)

binder	binding result
GST-CPS-6 (other, C. elegans, UniProt Q95NM6 1-308, looked up, GST at the N-terminus as in pGEX vectors; also called CPS-6 GST-fusion protein; not shown: glutathione S-transferase tag encoded by vector pGEX4T-2) MIGKVAGTAAIAGISFLAGKYSNDDLPIFRNVQSATNVPMNQIQVSEPMTVKPASLNADAMGPSRSAEIMKHGYPGFTNVRTYEDFVLSYDYKTRTAHWVCEHLTPERLKHAEGVDRKLCEFKPDITFPQKFLSQNTDYKCSGFDRGHLAAAGNHRKSQLAVDQTFYLSNMSPQVGRGFNRDKWNDLEMHCRRVAKKMINSYIITGPLYLPKLEGDGKKYIKYQVIGDNNVAVPTHFFKVALFEVTPGKFELESYILPNAVIEDTVEISKFHVPLDAVERSAGLEIFARLDPKSIVKENGAKKGGLLW	no binding
GST-NUC-1 (other, C. elegans, UniProt Q17778 22-375, looked up, also called NUC-1 GST-fusion protein; not shown: glutathione S-transferase tag encoded by vector pGEX4T-2) AFSCKDQSGNDVDWFAVYKMPIEKDDGSVTGLAGGVAWYYVDVNKKGTLTPSAKTLDDNDQAIAYTLQQYYDKQNDKTIFHVMYNDEPWGSKSTSGIKLEEILSNRVYSNYTHEDDSTSTAFGHTKGTIFFDGTSGVWLVHSVPLFPNPTKYEYPVSGHDYGQTMLCMTFKYAQLKSIGTQLFFNRPNIYSSNLPTNMAADNADLAKAIAGQYQKGQPFQSVIELETMAGYSFTNFAKSKEFNADLYDTLVAPTLKTDLVVETWRRGSEIPLDCKLTYHANDALSIHVGSTTAFSYTKDHSKMAHSADMTKPWVCIGDINRMTSQYVRGGGTTCISSSFLWKAYSVIATQNNCA	no binding
GST-CRN-5 (other, also called CRN-5 GST-fusion protein; not shown: GST carrier and the linker of vector pGEX4T-2) MAGRLREMRCELSFLKNADGSACFSQGATCIWASCSGPGDVHASKASDEAMTLDISYRANCGDNKFNVLNNIIHSTLSNAINLELFPHTTISVTVHGIQDDGSMGAVAINGACFALLDNGMPFETVFCGVLIVRVKDELIIDPTAKQEAASTGRVLFSVCKGSDGHPEVCAMDAIGHWDFIQLEAAWSLAQPSASAIFDFYKTVMKRKLSVDEQ	no binding
